METHOD_SUMMARY: Compound stability in human liver microsomes (Example 15)
Type: in vitro ADME
CONDITIONS_USED: pH 7.4; pooled human liver microsomes 0.5 mg/mL, 1 μM test compound, 2 mM NADPH, 37° C., 0-30 min
PROPERTY_LABEL: half-life at 1 μM (min)

Solved entries (count: 3):
[2H]C([2H])([2H])OC([2H])([2H])COc1cc2ncnc(Nc3ccc(O)c(C#C)c3)c2cc1OCC([2H])([2H])OC([2H])([2H])[2H] [Compound 138] :: 88.5
[2H]C([2H])([2H])OC([2H])([2H])C([2H])([2H])Oc1cc2ncnc(Nc3ccc(F)c(C#C)c3)c2cc1OC([2H])([2H])C([2H])([2H])OC([2H])([2H])[2H] [Compound 121] :: 50.8
C#Cc1cccc(Nc2ncnc3cc(OCCOC)c(OCCOC)cc23)c1 [Erlotinib, reference compound] :: 57.8

[P] [2H]C([2H])([2H])OC([2H])([2H])C([2H])([2H])Oc1cc2ncnc(Nc3cccc(C#C)c3)c2cc1OC([2H])([2H])C([2H])([2H])OC([2H])([2H])[2H] [Compound 120]
[Q] [2H]C([2H])([2H])OC([2H])([2H])COc1cc2ncnc(Nc3ccc(F)c(C#C)c3)c2cc1OCC([2H])([2H])OC([2H])([2H])[2H] [Compound 135]
Among P and Q , which shows a numerically higher half-life at 1 μM result? Answer format: the label of the selected item.
P
(P: 68.5 min, Q: 47.1 min)
